Entries and their measured EC50 of cell viability (Cell Titer-Glo), MM.1R (BCMA+) cells follow.
# SYSTEM NAME: T1, Human BCMA (B Cell Maturation Antigen) (human, UniProt Q02223 1-184)
# T1 sequence: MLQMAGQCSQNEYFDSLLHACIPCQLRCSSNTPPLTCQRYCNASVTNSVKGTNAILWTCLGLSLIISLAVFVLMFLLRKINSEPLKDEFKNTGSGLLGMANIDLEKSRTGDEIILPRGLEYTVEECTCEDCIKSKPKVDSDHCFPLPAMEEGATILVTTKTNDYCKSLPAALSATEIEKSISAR
# EXPERIMENT NOTES: cell-based or functional assay

Please look up its EC50 of cell viability (Cell Titer-Glo), MM.1R (BCMA+) cells: anti-BCMA-AB2-Compound 4 (antibody, V domains shown, drug-linker Compound 4 on antibody cysteine thiols (positions not stated)) VH: EVQLVESGGGLVKPGGSLRLSCAASGFTSSTAWMSWVRQAPGKGLEWVGRIKSKSDGGTTDYAAPVKGRFTISRDDSKNTLFLQMNSLKTEDTAVYYCAKGGGTYGYWGQGTTVTVSS VL: QSALTQPASVSGSPGQSVTISCTGTSSDGGGHTYVSWYQQHPGKAPKLMIYDVSNRPSWVSNRFSGSKSGNTASLTISGLQAEDEADYYCGSYTSSGSYVFGTGTKLTVL
> 1000 nM

Please look up its EC50 of cell viability (Cell Titer-Glo), MM.1R (BCMA+) cells: anti-BCMA-AB2-Compound 6 (antibody, V domains shown, drug-linker Compound 6 on antibody cysteine thiols (positions not stated)) VH: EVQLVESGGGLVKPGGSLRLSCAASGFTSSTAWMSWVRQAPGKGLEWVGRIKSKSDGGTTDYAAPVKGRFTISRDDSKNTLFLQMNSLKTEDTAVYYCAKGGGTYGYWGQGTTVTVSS VL: QSALTQPASVSGSPGQSVTISCTGTSSDGGGHTYVSWYQQHPGKAPKLMIYDVSNRPSWVSNRFSGSKSGNTASLTISGLQAEDEADYYCGSYTSSGSYVFGTGTKLTVL
129 nM

Please look up its EC50 of cell viability (Cell Titer-Glo), MM.1R (BCMA+) cells: anti-BCMA-AB2-Compound 8 (antibody, V domains shown, drug-linker Compound 8 on antibody cysteine thiols (positions not stated)) VH: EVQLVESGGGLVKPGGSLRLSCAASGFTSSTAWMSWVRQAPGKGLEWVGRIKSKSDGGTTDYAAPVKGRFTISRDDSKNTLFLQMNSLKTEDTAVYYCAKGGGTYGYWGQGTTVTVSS VL: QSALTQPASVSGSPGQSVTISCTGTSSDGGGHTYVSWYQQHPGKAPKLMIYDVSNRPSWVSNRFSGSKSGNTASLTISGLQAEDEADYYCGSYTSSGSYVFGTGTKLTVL
> 1000 nM
